tested on: Human immunodeficiency virus 1; test: Antiviral activity against HIV1 NL4-3 in MT4 cells; assay type: functional, organism-based; details: Human immunodeficiency virus 1, NL4-3, MT4
pEC50: −log10 of the molar value.
Quick reference: pEC50 of the listed items.
resultType: pEC50

> print(dat)
                           chemicalstructure  qual  measurednumber
 1  COC(=O)N[C@@H](C(=O)NCCCC[C@@H](CO)N(CC(C)C)S(=O)(=O)c1ccc(N)cc1)C(c1ccccc1)c1ccccc1     =            6.07
 2  CC(C)CN([C@H](CO)CCCCNC(=O)[C@@H](NC(=O)Cc1cccnc1)C(c1ccccc1)c1ccccc1)S(=O)(=O)c1ccc(N)cc1     =            6.71
 3  CC(C)CN([C@H](CO)CCCCNC(=O)[C@@H](NC(=O)c1ccncc1)C(c1ccccc1)c1ccccc1)S(=O)(=O)c1ccc(N)cc1     =            7.49
 4  CC(C)CN([C@H](CO)CCCCNC(=O)[C@@H](NC(=O)N(C)C)C(c1ccccc1)c1ccccc1)S(=O)(=O)c1ccc(N)cc1     =            7.21
 5  CC(C)CN([C@H](CO)CCCCNC(=O)[C@@H](NC(=O)OCc1ccccn1)C(c1ccccc1)c1ccccc1)S(=O)(=O)c1ccc(N)cc1     =            7.77
 6  CC(C)CN([C@H](CO)CCCCNC(=O)[C@@H](NC(=O)C1CCCCC1)C(c1ccccc1)c1ccccc1)S(=O)(=O)c1ccc(N)cc1     =            7.03
 7  CC(C)CN([C@H](CO)CCCCNC(=O)[C@@H](NC(=O)OC(C)(C)C)C(c1ccccc1)c1ccccc1)S(=O)(=O)c1ccc(N)cc1     =            7.39
 8  CC(C)CN([C@H](CO)CCCCNC(=O)[C@@H](NC(=O)c1ccc([N+](=O)[O-])c(O)c1)C(c1ccccc1)c1ccccc1)S(=O)(=O)c1ccc(N)cc1     =            7.80
 9  COC(=O)N[C@H](C(=O)NCCCC[C@H](CO)N(CC(C)C)S(=O)(=O)c1ccc(N)cc1)C(c1ccccc1)c1ccccc1     =            5.52
10  CC(C)CN([C@H](CO)CCCCNC(=O)[C@@H](NC(=O)c1ccccn1)C(c1ccccc1)c1ccccc1)S(=O)(=O)c1ccc(N)cc1     =            7.17
11  CC(C)CN([C@H](CO)CCCCNC(=O)[C@@H](NC(=O)c1cccc(O)c1)C(c1ccccc1)c1ccccc1)S(=O)(=O)c1ccc(N)cc1     =            7.19
12  CC(C)CN([C@H](CO)CCCCNC(=O)[C@@H](NC(=O)c1ccc(O)cc1)C(c1ccccc1)c1ccccc1)S(=O)(=O)c1ccc(N)cc1     =            7.06
13  CC(C)CN([C@H](CO)CCCCNC(=O)[C@@H](NC(=O)c1ccc[nH]1)C(c1ccccc1)c1ccccc1)S(=O)(=O)c1ccc(N)cc1     =            7.47
14  Cc1ncccc1C(=O)N[C@H](C(=O)NCCCC[C@@H](CO)N(CC(C)C)S(=O)(=O)c1ccc(N)cc1)C(c1ccccc1)c1ccccc1     =            7.38
15  COC(=O)N[C@H](Cc1ccccc1-c1ccccc1)C(=O)NCCCC[C@@H](CO)N(CC(C)C)S(=O)(=O)c1ccc(N)cc1     =            6.70
16  CC(C)CN([C@H](CO)CCCCNC(=O)[C@@H](NC(=O)c1cccnc1)C(c1ccccc1)c1ccccc1)S(=O)(=O)c1ccc(N)cc1     =            7.41
17  COc1cc(C(=O)N[C@@H](C(=O)NCCCC[C@@H](CO)N(CC(C)C)S(=O)(=O)c2ccc(N)cc2)C(c2ccccc2)c2ccccc2)ccc1O     =            7.85
18  COC(=O)N[C@H](Cc1ccc2ccccc2c1)C(=O)NCCCC[C@@H](CO)N(CC(C)C)S(=O)(=O)c1ccc(N)cc1     =            6.59
19  CC(C)CN([C@H](CO)CCCCNC(=O)[C@@H](NC(=O)N1CCOCC1)C(c1ccccc1)c1ccccc1)S(=O)(=O)c1ccc(N)cc1     =            7.11
20  CC(=O)N[C@H](C(=O)NCCCC[C@@H](CO)N(CC(C)C)S(=O)(=O)c1ccc(N)cc1)C(c1ccccc1)c1ccccc1     =            7.18
21  CC(C)CN([C@H](CO)CCCCNC(=O)[C@@H](N)C(c1ccccc1)c1ccccc1)S(=O)(=O)c1ccc(N)cc1     =            7.36
22  CC(C)CN([C@H](CO)CCCCNC(=O)[C@@H](NC(=O)C1CC1)C(c1ccccc1)c1ccccc1)S(=O)(=O)c1ccc(N)cc1     =            7.60
23  COC(=O)N[C@@H](C(=O)NCCCC[C@H](CO)N(CC(C)C)S(=O)(=O)c1ccc(N)cc1)C(c1ccccc1)c1ccccc1     <            4.00
24  CC(C)CN([C@H](CO)CCCCNC(=O)[C@@H](NC(=O)c1ncccc1O)C(c1ccccc1)c1ccccc1)S(=O)(=O)c1ccc(N)cc1     =            6.82
25  CC(C)CN([C@H](CO)CCCCNC(=O)[C@@H](NC(=O)c1ccccc1O)C(c1ccccc1)c1ccccc1)S(=O)(=O)c1ccc(N)cc1     =            7.19

* * *

tested on: Human immunodeficiency virus 1; assay: Antiviral activity against HIV1 NL4-3 in MT4 cells; format: functional, organism-based; details: Human immunodeficiency virus 1, NL4-3, MT4
pEC50: −log10 of the molar value.
Would you please tag the item fulfilled when its pEC50 is 6 or above, and not fulfilled when it is below?

> print(dat)
                          chemicalstructure  assignedclass
1  CC(C)CN([C@H](CO)CCCCNC(=O)[C@@H](NC(=O)OCc1cccnc1)C(c1ccccc1)c1ccccc1)S(=O)(=O)c1ccc(N)cc1      fulfilled
2  COC(=O)N[C@H](CCc1ccccc1)C(=O)NCCCC[C@@H](CO)N(CC(C)C)S(=O)(=O)c1ccc(N)cc1  not fulfilled
3  COC(=O)N[C@H](Cc1cccc2ccccc12)C(=O)NCCCC[C@@H](CO)N(CC(C)C)S(=O)(=O)c1ccc(N)cc1      fulfilled
4  COC(=O)N[C@H](Cc1ccccc1)C(=O)NCCCC[C@@H](CO)N(CC(C)C)S(=O)(=O)c1ccc(N)cc1  not fulfilled
5  CC(C)CN([C@H](CO)CCCCNC(=O)[C@@H](NC(=O)c1ccc(O)c([N+](=O)[O-])c1)C(c1ccccc1)c1ccccc1)S(=O)(=O)c1ccc(N)cc1      fulfilled
6  CC(C)CN([C@H](CO)CCCCNC(=O)[C@@H](NC(=O)OCc1ccncc1)C(c1ccccc1)c1ccccc1)S(=O)(=O)c1ccc(N)cc1      fulfilled

* * *

List of IC50 tested on Human immunodeficiency virus type 1 protease (Human immunodeficiency virus 1).
resultType: IC50 (nM)

> print(dat)
                          chemicalstructure  measurednumber
1  CC(C)CN([C@H](CO)CCCCNC(=O)[C@@H](NC(=O)OCc1ccncc1)C(c1ccccc1)c1ccccc1)S(=O)(=O)c1ccc(N)cc1            0.39
2  CC(C)CN([C@H](CO)CCCCNC(=O)[C@@H](NC(=O)c1ccncc1)C(c1ccccc1)c1ccccc1)S(=O)(=O)c1ccc(N)cc1            0.65
3  CC(C)CN([C@H](CO)CCCCNC(=O)[C@@H](NC(=O)c1ccc[nH]1)C(c1ccccc1)c1ccccc1)S(=O)(=O)c1ccc(N)cc1            0.43
4  COC(=O)N[C@H](C(=O)NCCCC[C@H](CO)N(CC(C)C)S(=O)(=O)c1ccc(N)cc1)C(c1ccccc1)c1ccccc1              25
5  CC(C)CN([C@H](CO)CCCCNC(=O)[C@@H](NC(=O)c1ccccn1)C(c1ccccc1)c1ccccc1)S(=O)(=O)c1ccc(N)cc1            0.46
6  CC(=O)N[C@H](C(=O)NCCCC[C@@H](CO)N(CC(C)C)S(=O)(=O)c1ccc(N)cc1)C(c1ccccc1)c1ccccc1             1.5
7  Cc1ncccc1C(=O)N[C@H](C(=O)NCCCC[C@@H](CO)N(CC(C)C)S(=O)(=O)c1ccc(N)cc1)C(c1ccccc1)c1ccccc1             0.4
8  CC(C)CN([C@H](CO)CCCCNC(=O)[C@@H](NC(=O)OC(C)(C)C)C(c1ccccc1)c1ccccc1)S(=O)(=O)c1ccc(N)cc1             0.4
